system: AncSZ; assay: phosphorylation enrichment, bacterial display (enrichment ratio); higher = better substrate or ligand; peptides without Tyr show the background;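 further: 11-residue human phosphosite peptides and single-mutation variants displayed on the E. coli surface, counted by deep sequencing, each peptide's frequency after selection divided by its frequency in the unselected input library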;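 further: frequency after pTyr selection over input frequency; kinase dosed for 20-30% of maximal phosphorylation in three min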
Quick rule: phosphorylation enrichment of at least 1 means met, below that means not met.

// inclusive: phosphorylation enrichment at least 1? input: VRTGIYHGREP [PIK3CA_Y361_G364R] not met

Now consider AKKKMYSHKTK [AGXT_Y231_R233H] and answer again. not met

Now consider CTSIHYNFMCN [TP53_Y234_T231S_YF] and answer again. not met

Now consider SNKLHYQLEQE [PDPR_Y110_Y109H] and answer again. not met

Now consider YRASYYRKGGC [ALK_Y1283] and answer again. not met

Now consider PADSGYPAFLG [ATP6V1A_Y374_YF] and answer again. met

Now consider NACGLYHKMNG [GATA5_Y216] and answer again. not met

Now consider TYAVSYLPDMS [FLNC_Y1602_T1599A] and answer again. not met

Now consider LDTSQYFRLFN [CPT2_Y217_M214T] and answer again. not met

Now consider RSRSPYSPVFR [CDK13_Y399_L403F] and answer again. not met

Now consider TESNNYIYTTL [FAM83B_Y637_K640T] and answer again. met

Now consider NREGVYRVFAP [TGFBI_Y537_T538R] and answer again. not met

Now consider QKTGDYYDLYG [PTPN11_Y62_N58K] and answer again. met
